- targetOrTestSystem: BuChE (Homo sapiens, UniProt P06276)
- Construct: BuChE (3.4 U/mg) was obtained from human plasma; from tissue; host or cells: human plasma
- Sequence (P06276 29-602): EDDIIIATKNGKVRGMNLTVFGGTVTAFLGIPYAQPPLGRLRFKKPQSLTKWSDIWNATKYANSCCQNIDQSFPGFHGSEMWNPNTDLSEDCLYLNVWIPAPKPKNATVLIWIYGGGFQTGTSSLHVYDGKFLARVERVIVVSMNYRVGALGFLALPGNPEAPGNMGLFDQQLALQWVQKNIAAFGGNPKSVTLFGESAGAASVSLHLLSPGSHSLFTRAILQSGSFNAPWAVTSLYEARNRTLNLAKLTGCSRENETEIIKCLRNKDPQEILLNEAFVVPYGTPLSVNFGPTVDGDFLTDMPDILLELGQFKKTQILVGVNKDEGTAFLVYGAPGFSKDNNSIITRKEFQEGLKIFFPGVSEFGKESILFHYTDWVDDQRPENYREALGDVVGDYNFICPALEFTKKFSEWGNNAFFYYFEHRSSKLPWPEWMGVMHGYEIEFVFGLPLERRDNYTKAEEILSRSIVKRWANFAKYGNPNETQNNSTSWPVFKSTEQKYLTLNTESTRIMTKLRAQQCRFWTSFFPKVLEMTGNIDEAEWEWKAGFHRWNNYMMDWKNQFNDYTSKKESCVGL
- test: biochemical
- setupConditions: 50 μM compound; BuChE from human plasma; pre-incubated 60 min at 37 °C
readoutType: Inhibition % at 50 μM BuChE (%)
# output: bare number, implied unit %

Solved entries (count: 3):
- compound: "C#CCNC(=O)OCCOc1ccc2c(=O)c(-c3ccc(OC)cc3)coc2c1"
  unitLabel: "%"
  Inhibition % at 50 μM BuChE: "−5.49"
- compound: "O=c1c(-c2ccc(O)cc2)coc2cc(OCCN3CCCC3)ccc12"
  unitLabel: "%"
  Inhibition % at 50 μM BuChE: 99.88
- compound: "COc1ccc(-c2coc3cc(OCCN4CCCCC4)cc(O)c3c2=O)cc1"
  unitLabel: "%"
  Inhibition % at 50 μM BuChE: 95.74

### Prompt I am curious: what Inhibition % at 50 μM BuChE value has been reported for COc1ccc(-c2coc3cc(OCCNC45CC6C[C@@](C)(C4)C[C@](C)(C6)C5)ccc3c2=O)cc1 ?
### Response −6.62

### Prompt I am curious: what Inhibition % at 50 μM BuChE value has been reported for COc1ccc(-c2coc3cc(OCCNCCc4c[nH]c5ccc(OC)cc45)ccc3c2=O)cc1 ?
### Response 45.74

### Prompt I am curious: what Inhibition % at 50 μM BuChE value has been reported for COc1ccc(-c2coc3cc(OCCCCN4CCCCC4)ccc3c2=O)cc1 ?
### Response 98.11
